# Test system: HeLa Kyoto
# protocol notes: solubility in G1/S (NP-40 vs SDS abundance) (log2 ratio); higher = more soluble
# test context: cell cycle stage: G1/S
experimental readout: solubility in G1/S (log2)
Numbers only.

MLLLAAAFLVAFVLLLYMVSPLISPKPLALPGAHVVVTGGSSGIGKCIAIECYKQGAFITLVARNEDKLLQAKKEIEMHSINDKQVVLCISVDVSQDYNQVENVIKQAQEKLGPVDMLVNCAGMAVSGKFEDLEVSTFERLMSINYLGSVYPSRAVITTMKERRVGRIVFVSSQAGQLGLFGFTAYSASKFAIRGLAEALQMEVKPYNVYITVAYPPDTDTPGFAEENRTKPLETRLISETTSVCKPEQVAKQIVKDAIQGNFNSSLGSDGYMLSALTCGMAPVTSITEGLQQVVTMGLFRTIALFYLGSFDSIVRRCMMQREKSENADKTA [KDSR] = -0.701
MAMLRVQPEAQAKVDVFREDLCTKTENLLGSYFPKKISELDAFLKEPALNEANLSNLKAPLDIPVPDPVKEKEKEERKKQQEKEDKDEKKKGEDEDKGPPCGPVNCNEKIVVLLQRLKPEIKDVIEQLNLVTTWLQLQIPRIEDGNNFGVAVQEKVFELMTSLHTKLEGFHTQISKYFSERGDAVTKAAKQPHVGDYRQLVHELDEAEYRDIRLMVMEIRNAYAVLYDIILKNFEKLKKPRGETKGMIY [PSME1] = 0.819

Field: next sequence
Could you tell me which solubility in G1/S (log2) is on file for MEDKRNIQIIEWEHLDKKKFYVFGVAMTMMIRVSVYPFTLIRTRLQVQKGKSLYHGTFDAFIKILRADGITGLYRGFLVNTFTLISGQCYVTTYELTRKFVADYSQSNTVKSLVAGGSASLVAQSITVPIDVVSQHLMMQRKGEKMGRFQVRGNPEGQGVVAFGQTKDIIRQILQADGLRGFYRGYVASLLTYIPNSAVWWPFYHFYAEQLSYLCPKECPHIVFQAVSGPLAAATASILTNPMDVIRTRVQVEGKNSIILTFRQLMAEEGPWGLMKGLSARIISATPSTIVIVVGYESLKKLSLRPELVDSRHW [SLC25A44] ?
-0.146

###

# System: HeLa Kyoto
# protocol notes: melting temperature (median over replicates), in situ; higher = more thermally stable
# test context: cell cycle stage: G1/S
experimental readout: melting temperature

MVGRNSAIAAGVCGALFIGYCIYFDRKRRSDPNFKNRLRERRKKQKLAKERAGLSKLPDLKDAEAVQKFFLEEIQLGEELLAQGEYEKGVDHLTNAIAVCGQPQQLLQVLQQTLPPPVFQMLLTKLPTISQRIVSAQSLAEDDVE [TOMM20] = 49.7 °C

Answer for every listed entry: what is its melting temperature? The entries follow.
1. MDTPPLSDSESESDESLVTDRELQDAFSRGLLKPGLNVVLEGPKKAVNDVNGLKQCLAEFKRDLEWVERLDVTLGPVPEIGGSEAPAPQNKDQKAVDPEDDFQREMSFYRQAQAAVLAVLPRLHQLKVPTKRPTDYFAEMAKSDLQMQKIRQKLQTKQAAMERSEKAKQLRALRKYGKKVQTEVLQKRQQEKAHMMNAIKKYQKGFSDKLDFLEGDQKPLAQRKKAGAKGQQMRKGPSAKRRYKNQKFGFGGKKKGSKWNTRESYDDVSSFRAKTAHGRGLKRPGKKGSNKRPGKRTREKMKNRTH [EBNA1BP2]
2. MHQQKRQPELVEGNLPVFVFPTELIFYADDQSTHKQVLTLYNPYEFALKFKVLCTTPNKYVVVDAAGAVKPQCCVDIVIRHRDVRSCHYGVIDKFRLQVSEQSQRKALGRKEVVATLLPSAKEQQKEEEEKRLKEHLTESLFFEQSFQPENRAVSSGPSLLTVFLGVVCIAALMLPTLGDVESLVPLYLHLSVNQKLVAAYILGLITMAILRT [MOSPD1]

54 °C
54.2 °C
